Taken from patent US8394959B2.

experiment: Compound pharmacokinetics (systemic exposure) in rats; type: in vivo, rat; settings: plasma; rat Female, 30 mg/kg, Day 10, mean (SE), N 3; read-out: AUC0-24
readout_type: AUC(0-t) (ng·h/mL)
Hi! Could you send only the number? It should be in ng·h/mL, unit omitted.

Ask: Entry under review: CCOc1cc2ncc(C#N)c(Nc3ccc(OCc4ccccn4)c(Cl)c3)c2cc1NC(=O)/C=C/CN(C)C [free base] . Reported AUC(0-t)?
Reply: 25000

* * *

test: Solubility comparison of free base and maleate salt; conditions: 2% Tween 80 in water, aqueous with cosolvent or surfactant or cyclodextrin
readout_type: solubility (µg/mL)
Hi! Could you send only the number? It should be in µg/mL, unit omitted.

Ask: Entry under review: CCOc1cc2ncc(C#N)c(Nc3ccc(OCc4ccccn4)c(Cl)c3)c2cc1NC(=O)/C=C/CN(C)C.O=C(O)/C=C\C(=O)O [Maleate salt] . Reported solubility?
Reply: 1120

* * *

assay: Compound pharmacokinetics (systemic exposure) in rats; assay type: in vivo, rat; details: plasma, oral; rat Female, 5 mg/kg, Day 28, mean (SE), N 3
readout_type: Cmax

Ask: Entry under review: CCOc1cc2ncc(C#N)c(Nc3ccc(OCc4ccccn4)c(Cl)c3)c2cc1NC(=O)/C=C/CN(C)C.O=C(O)/C=C\C(=O)O [Maleate salt] . Reported Cmax?
Reply: 1380 ng/mL

* * *

assay: Compound pharmacokinetics (systemic exposure) in rats; format: in vivo, rat; settings: plasma; rat Male, 15 mg/kg, Day 28, mean (SE), N 3
readout_type: Cmax (ng/mL)
Hi! Could you send only the number? It should be in ng/mL, unit omitted.

Ask: Entry under review: CCOc1cc2ncc(C#N)c(Nc3ccc(OCc4ccccn4)c(Cl)c3)c2cc1NC(=O)/C=C/CN(C)C.O=C(O)/C=C\C(=O)O [Maleate salt] . Reported Cmax?
Reply: 3420

* * *

assay: Compound pharmacokinetics (systemic exposure) in rats; assay type: in vivo, rat; conditions: plasma; rat Female, 30 mg/kg, Day 10, mean (SE), N 3
readout_type: Cmax

Ask: Entry under review: CCOc1cc2ncc(C#N)c(Nc3ccc(OCc4ccccn4)c(Cl)c3)c2cc1NC(=O)/C=C/CN(C)C [free base] . Reported Cmax?
Reply: 2440 ng/mL

* * *

experiment: Compound pharmacokinetics (systemic exposure) in rats; type: in vivo, rat; settings: plasma, oral; rat Male, 5 mg/kg, Day 28, mean (SE), N 3; read-out: AUC0-24
readout_type: AUC(0-t) (ng·h/mL)
Hi! Could you send only the number? It should be in ng·h/mL, unit omitted.

Ask: Entry under review: CCOc1cc2ncc(C#N)c(Nc3ccc(OCc4ccccn4)c(Cl)c3)c2cc1NC(=O)/C=C/CN(C)C.O=C(O)/C=C\C(=O)O [Maleate salt] . Reported AUC(0-t)?
Reply: 8220

* * *

test: Solubility comparison of free base and maleate salt; conditions: water, pH 5, water
readout_type: solubility (µg/mL)
Hi! Could you send only the number? It should be in µg/mL, unit omitted.

Ask: Entry under review: CCOc1cc2ncc(C#N)c(Nc3ccc(OCc4ccccn4)c(Cl)c3)c2cc1NC(=O)/C=C/CN(C)C.O=C(O)/C=C\C(=O)O [Maleate salt] . Reported solubility?
Reply: 430

* * *

assay: Compound pharmacokinetics (systemic exposure) in rats; type: in vivo, rat; conditions: plasma; rat Female, 45 mg/kg, Day 28, mean (SE), N 3
readout_type: Cmax (ng/mL)
Hi! Could you send only the number? It should be in ng/mL, unit omitted.

Ask: Entry under review: CCOc1cc2ncc(C#N)c(Nc3ccc(OCc4ccccn4)c(Cl)c3)c2cc1NC(=O)/C=C/CN(C)C.O=C(O)/C=C\C(=O)O [Maleate salt] . Reported Cmax?
Reply: 4560
